Data provenance is PubChem BioAssay.

Quick reference for z-score among some compounds
assay-explanation: E. coli DRC41 culture turbidity changes, primary screen, E. coli filamentation inducer project, strain DRC41, OD650, 48 h (AID 1152);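 also: E. coli MC1000 strain DRC41 lacking acrAB efflux pump and sulA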
condition-description: E. coli DRC41 (acrAB sulA), higher = more signal, called active from +8 up or from −8 down
Would you mind answering with just the numeric figure?

Here are 6 compounds together with their reported answers.
compound: CCN(CC)c1ccc(N2CC=CC34O[C@@H]5C=CCCOC(=O)C5[C@H]3C(=O)N(CCCCCO)[C@@H]4C2=O)cc1 (some centres not stated)
z-score: 2.82
--
compound: COC(=O)[C@@]1(Cc2ccc(OC)cc2)[C@H]2c3cc(C(=O)N(C)C)n(Cc4c(OC)[nH]cc(C)c4=O)c3C[C@H]2CN1C(=O)c1ccccc1
z-score: -0.348
--
compound: COC(=O)[C@@]1(Cc2ccccc2)N=C(c2ccc(OCCCO)cc2)O[C@H]1c1ccccc1N=[N+]=[N-]
z-score: 0.388
--
compound: O=C1OCCC=C[C@H]2OC34C=CCN(c5ccc6ccccc6c5)C(=O)[C@H]3N(CCCCCO)C(=O)[C@@H]4C12 (some centres not stated)
z-score: 1.3
--
compound: CCOC(=O)C1=C[C@@H](CC)N(S(=O)(=O)c2ccc(C)cc2)[C@H]1c1ccccc1
z-score: -1.03
--
compound: COC(=O)[C@@]1(Cc2ccccc2N=[N+]=[N-])COC(c2ccc(OCCCO)cc2)=N1
z-score: -1.01

[Q] # get_value(readout='z-score', item= CC(C)N1CC=CC23O[C@@H]4C=CCOC(=O)[C@@H]4[C@H]2C(=O)N(CCO)[C@@H]3C1=O (some centres not stated) )
[A] 0.759

[Q] # get_value(readout='z-score', item= CC(C)OC(=O)CC(=O)CC(O)c1ccc(C#N)cc1 (configuration not stated) )
[A] 0.567

[Q] # get_value(readout='z-score', item= `[N-]=[N+]=NCc1ccccc1C[C@]1(C(=O)O)N=C(c2ccc(OCCCO)cc2)O[C@H]1c1ccccc1CN=[N+]=[N-]` )
[A] -0.813

[Q] # get_value(readout='z-score', item= `C=CCOC(=O)[C@H]1[C@@H]2C(=O)O[C@@H](c3ccccc3)[C@@H](c3ccccc3)N2[C@@H](c2ccc(OCCOC(=O)[C@@H]3C[C@@H]4C(=O)N5CCC[C@H]5C(=O)N4[C@@H]3c3ccc(O)cc3)cc2)[C@]12C(=O)Nc1ccccc12` )
[A] 0.891

[Q] # get_value(readout='z-score', item= N#Cc1ccc(NN2C(C(O)C3CCCCC3)C=CC3C(=O)N(c4ccccc4)C(=O)C32)cc1 (configuration not stated) )
[A] -1.35

----------
Tested on: Neuregulin-1 EGF-like domain
assay-explanation: binders of neuregulin-1 EGF-like domain, primary screen, biochemical, small-molecule microarray, 635 nm fluorescence (AID 1081);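 also: binding of the protein to compounds printed on small-molecule microarray slides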
condition-description: small-molecule microarray binding, higher = more signal
test-readout: composite z-score
Would you mind answering with just the numeric figure?

compound: C=CCC(OC(C)=O)[C@@H]1[C@@H](N(Cc2ccc(-c3ccccc3)cc2)C(=O)Cc2ccc(OC)cc2)c2cc(OCCCO)ccc2N1C(=O)c1ccc2ccccc2n1 (some centres not stated)
composite z-score: -0.271
--
compound: Cc1ccc(S[C@]2(C(=O)NCC(C)C)CC(=O)N(Cc3ccccc3Cl)[C@@H]2c2ccc(CO)cc2)cc1
composite z-score: -0.232
--
compound: CC1=C2[C@@H](CCc3ccccc3)OB(O)C[C@@H]2n2c(=O)n(-c3ccccc3)c(=O)n2C1
composite z-score: 1.04

[Q] Identify the measured composite z-score of O=C(OCCF)C1=CCC(c2cccc(Cl)c2)O1 (configuration not stated) for Neuregulin-1 EGF-like domain.
[A] 1.03

[Q] Identify the measured composite z-score of CN1C(=O)C2C(C1=O)C1C=C(CCCO)C2C(c2cccs2)N1C (configuration not stated) for Neuregulin-1 EGF-like domain.
[A] 1.19

[Q] Identify the measured composite z-score of `COC(=O)[C@]1(Cc2ccccc2N=[N+]=[N-])N=C(c2ccc(OCCCO)cc2)O[C@@H]1c1ccccc1N=[N+]=[N-]` for Neuregulin-1 EGF-like domain.
[A] 1.1

[Q] Identify the measured composite z-score of `COCCOC(=O)N1C(=O)[C@@]2(c3cc(C#CCC(C(=O)OC)C(=O)OC)ccc31)[C@H](c1ccccc1OCCO)N1[C@H](c3ccccc3)[C@H](c3ccccc3)OC(=O)[C@H]1[C@@H]2C(N)=O` for Neuregulin-1 EGF-like domain.
[A] 1.21

----------
assay-explanation: FRG1 promoter luciferase signal modulators, primary screen, FRG1 inhibition for FSHD, cell-based, C2C12 myotubes, firefly/Renilla luciferase, luminescence (AID 1084)
condition-description: higher = more signal, called active from +8 up or from −8 down
test-readout: z-score
Would you mind answering with just the numeric figure?

Here are 5 compounds together with their reported answers.
compound: CC(C)Cc1ccc(CN2CC[C@@H](NS(=O)(=O)c3ccccc3)C2)cc1
z-score: -0.803
--
compound: CC(C)c1ccc(NN2C(C(O)c3cccc(O)c3)C=CC3C(=O)N(c4ccccc4)C(=O)C32)cc1 (stereo unspecified)
z-score: -1.04
--
compound: Cc1ccc([C@H]2[C@H](C(=O)O)[C@H](Sc3ccccc3)[C@@H](C(C)C)N2S(=O)(=O)c2ccc(C)cc2)cc1
z-score: -2.58
--
compound: COc1ccc(CCNC(=O)[C@@H]2c3ccccc3C(=O)N(Cc3ccc(OC(F)(F)F)cc3)[C@H]2c2ccc(CO)cc2)cc1
z-score: -2.61
--
compound: CCCCC=C[C@@H](NC(=O)c1ccc(C(=O)OC)cc1)c1ccccc1
z-score: 1.86

[Q] # get_value(readout='z-score', item= C[C@H]1NC(=O)[C@H](Cc2ccccc2)NC(=O)[C@@]23C(=O)N[C@@H](Cc4ccccc4)C2[C@H](C)[C@@]2(C)O[C@H]2C3/C=C/C/C=C\CNC1=O (stereo partly specified) )
[A] 0.049

[Q] # get_value(readout='z-score', item= `Cc1ccc(S[C@]2(C(=O)NCC(C)C)CC(=O)N(Cc3ccccc3Cl)[C@@H]2c2ccc(CO)cc2)cc1` )
[A] -2.55

----------
Test system: XIP peptide (Xip251-270) binding
assay-explanation: small-molecule binders of XIP peptide, primary screen, biochemical, small-molecule microarray, fluorescence 635/667 nm, 0.1 µg/mL protein (AID 1182)
condition-description: fluorescent protein binding, 635 nm, higher = more signal, called active from +8 up or from −8 down
Consider the reported composite z-score of an entry and match it to a band in range A: < -0.2; range B: ≥ -0.2 and < 1; range C: ≥ 1

Example results:
molecule: COC(=O)[C@@]1(Cc2ccccc2N=[N+]=[N-])COC(c2ccc(OCCCO)cc2)=N1
qualitative-label: range C
//
molecule: O=C1OCCC=C[C@H]2OC34C=CCN(Cc5ccccc5)C(=O)[C@H]3N(CCCCCCO)C(=O)[C@@H]4C12 (some centres undefined)
qualitative-label: range A
//
molecule: C#CCN(C(/C=C/c1ccccc1)CO)C(C(=O)O)c1ccccc1 (centres undefined)
qualitative-label: range B
//
molecule: CCOC(=O)C[C@H]1[C@H](OC(=O)c2ccc(-c3ccccc3)cc2)[C@@H](NC(=O)c2ccc3ccccc3c2)c2cc(OCCCO)ccc2N1C(=O)Cc1ccc(OC)cc1
qualitative-label: range A
//
molecule: O=C(CS)NCCCCCCNC(=O)[C@@H]1C[C@@H]2C(=O)N3CCC[C@H]3C(=O)N2[C@@H]1c1ccc(O)cc1
qualitative-label: range B
//
molecule: COCCOC(=O)N1C(=O)[C@@]2(c3cc(C#CCNC(N)=O)ccc31)[C@H](c1ccc(O)cc1)N1[C@H](c3ccccc3)[C@H](c3ccccc3)OC(=O)[C@H]1[C@@H]2C(=O)Nc1nc2ccccc2s1
qualitative-label: range A
//
molecule: Cc1ccc(S[C@]2(C(=O)NCc3ccccc3)CC(=O)N(Cc3ccccc3)[C@@H]2c2ccc(CO)cc2)cc1
qualitative-label: range B
//
molecule: COCCOC(=O)N1C(=O)[C@@]2(c3cc(C#CCC(C(=O)OC)C(=O)OC)ccc31)[C@H](C(=O)N1CCCCCCC1)[C@H]1C(=O)O[C@H](c3ccccc3)[C@H](c3ccccc3)N1[C@@H]2c1ccc(OCCO)cc1
qualitative-label: range B

[Q] Please let me know in which category the item `CC(C)C[C@@H]1NC(=O)[C@@H]2C[C@H](C(=O)NCCCCCC[N+](C)(C)C)[C@H](c3ccc(O)cc3)N2C1=O` belongs.
[A] range C

----------
assay-explanation: S. cerevisiae RM11-1a growth modifiers, primary screen, strain RM11-1a, OD600, basal, 24 h (AID 1177);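 also: cultures grown under basal conditions with no added stressor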
condition-description: OD600, 24 h, higher = more signal, called active from +8 up or from −8 down
z-score below 0.1 gives no; z-score at or above it gives yes.

Example results:
molecule: COCC1=C2[C@@H](CCc3ccccc3)OB(O)C[C@@H]2[C@@H]2C(=O)N(Cc3ccccc3)C(=O)[C@@H]2C1
qualitative-label: no

molecule: Cc1ccc(S[C@]2(C(=O)NCc3ccccc3)CC(=O)N(Cc3ccccc3)[C@@H]2c2ccc(CO)cc2)cc1
qualitative-label: yes

molecule: CC(C)C(=C=CC[C@H](O)c1cccc(OCCO)c1)C[C@H](O)COCc1ccccc1
qualitative-label: yes

molecule: COC(=O)c1ccc(C(O)C2C=CC3C(=O)N(C)C(=O)C3N2NC(=O)OC(C)(C)C)o1 (stereo unspecified)
qualitative-label: yes

molecule: C=CC[C@@]1(C(=O)O)N=C(c2ccc(OCCCO)cc2)O[C@@H]1c1ccccc1N=[N+]=[N-]
qualitative-label: yes

Now consider a different molecule.
[Q] Check if z-score >= 0.1 (inclusive). Item: `O=C1O[C@@H](c2ccccc2)[C@@H](c2ccccc2)N2[C@@H](c3ccc(OCCO)cc3)[C@]3(C(=O)Nc4ccc(C#CC5=CCCCC5)cc43)[C@@H](C(=O)O)[C@H]12`
[A] yes
